Every entry's value here was drawn from patent EP3529257B1.

experimental system: GluN2B glutamate receptors (Homo sapiens, UniProt Q05586+Q13224)
Construct: expressed in transfected cells; host or cells: mammalian cells (line not described for GluN2B)
Sequence (Q13224 27-1484, other chains not shown): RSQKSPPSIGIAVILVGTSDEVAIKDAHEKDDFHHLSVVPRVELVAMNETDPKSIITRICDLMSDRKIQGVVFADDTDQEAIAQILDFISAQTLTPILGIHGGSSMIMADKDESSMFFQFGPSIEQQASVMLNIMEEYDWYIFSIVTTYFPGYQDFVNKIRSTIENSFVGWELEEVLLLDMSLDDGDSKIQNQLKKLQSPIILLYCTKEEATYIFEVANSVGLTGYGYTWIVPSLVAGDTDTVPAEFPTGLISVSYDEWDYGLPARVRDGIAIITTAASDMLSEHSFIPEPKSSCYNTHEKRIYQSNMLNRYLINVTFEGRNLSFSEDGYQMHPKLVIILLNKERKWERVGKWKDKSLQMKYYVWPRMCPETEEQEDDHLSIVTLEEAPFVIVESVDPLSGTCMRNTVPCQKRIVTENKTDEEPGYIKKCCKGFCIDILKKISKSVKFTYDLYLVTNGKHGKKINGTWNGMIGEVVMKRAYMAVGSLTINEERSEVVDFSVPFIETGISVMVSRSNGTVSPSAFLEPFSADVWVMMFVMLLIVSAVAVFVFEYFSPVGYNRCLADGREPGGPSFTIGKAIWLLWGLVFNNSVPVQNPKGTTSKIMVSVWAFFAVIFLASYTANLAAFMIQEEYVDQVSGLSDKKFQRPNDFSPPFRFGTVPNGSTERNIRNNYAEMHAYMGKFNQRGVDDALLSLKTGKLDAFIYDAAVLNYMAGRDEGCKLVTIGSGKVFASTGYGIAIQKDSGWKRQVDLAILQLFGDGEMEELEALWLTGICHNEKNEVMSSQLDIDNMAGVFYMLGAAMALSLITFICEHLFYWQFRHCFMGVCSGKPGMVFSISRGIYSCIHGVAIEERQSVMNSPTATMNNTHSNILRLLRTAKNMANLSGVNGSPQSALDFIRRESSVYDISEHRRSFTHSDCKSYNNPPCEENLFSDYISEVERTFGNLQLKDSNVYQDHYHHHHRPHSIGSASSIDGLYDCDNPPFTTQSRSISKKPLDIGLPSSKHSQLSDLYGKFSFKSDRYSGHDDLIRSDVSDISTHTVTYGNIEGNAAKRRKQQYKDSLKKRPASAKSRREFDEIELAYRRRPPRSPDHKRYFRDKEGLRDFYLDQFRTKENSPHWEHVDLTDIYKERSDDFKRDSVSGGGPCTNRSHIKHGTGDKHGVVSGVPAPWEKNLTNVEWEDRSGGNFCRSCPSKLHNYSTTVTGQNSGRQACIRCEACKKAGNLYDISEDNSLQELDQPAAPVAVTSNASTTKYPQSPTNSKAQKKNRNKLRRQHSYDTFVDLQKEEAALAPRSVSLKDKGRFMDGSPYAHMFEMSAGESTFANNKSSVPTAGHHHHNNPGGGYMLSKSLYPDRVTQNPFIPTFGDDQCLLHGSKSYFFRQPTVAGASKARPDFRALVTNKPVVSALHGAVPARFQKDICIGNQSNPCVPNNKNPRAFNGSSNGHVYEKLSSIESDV
experimental protocol: Whole-cell patch clamp of mammalian cells (Ionworks Barracuda), positive allosteric modulation (PAM) of NMDA receptor, 2B
Type: cell-based
experimental conditions: % activation of current elicited with EC20 L-glutamate and 30 µM glycine
outcome measure: Emax
Answer format: value, then unit.

// worked examples, Emax included
# molecule, Emax
data = [
    ("CC[C@]1(O)CC[C@H]2C(=CC[C@@H]3[C@@H]2CC[C@]2(C)[C@@H]([C@H](C)CCC4(O)CCOC4)CC[C@@H]32)C1 (stereo partly drawn)", "439%"),
    ("CC[C@]1(O)CC[C@H]2C(=CC[C@@H]3[C@@H]2CC[C@]2(C)[C@@H]([C@H](C)CC[C@@H](O)C(C)C)CC[C@@H]32)C1", "324%"),
    ("CC(C)[C@H](O)CC[C@@H](C)[C@H]1CC[C@H]2[C@@H]3CC=C4C[C@](O)(C(F)(F)F)CC[C@]4(C)[C@H]3CC[C@]12C", "285%"),
    ("C[C@H](CC[C@H](O)C(C)(C)C)[C@H]1CC[C@H]2[C@@H]3CC[C@H]4C[C@](O)(C(F)(F)F)CC[C@]4(C)[C@H]3CC[C@]12C", "258%"),
    ("C[C@H](CCCC1(O)CC1)[C@H]1CC[C@H]2[C@@H]3CC[C@H]4C[C@](O)(C(F)(F)F)CC[C@]4(C)[C@H]3CC[C@]12C", "195%"),
]

// next entry
Query block: I'd like to know its Emax. The molecule in question is "C[C@H](CCC1(O)CCC(F)(F)CC1)[C@H]1CC[C@H]2[C@@H]3CC[C@H]4C[C@](O)(C(F)(F)F)CC[C@]4(C)[C@H]3CC[C@]12C"
Result block: 322%
